assay-system: T1, PUF4 RNA-binding domain (Saccharomyces cerevisiae, UniProt P25339 537-888)
T1 sequence: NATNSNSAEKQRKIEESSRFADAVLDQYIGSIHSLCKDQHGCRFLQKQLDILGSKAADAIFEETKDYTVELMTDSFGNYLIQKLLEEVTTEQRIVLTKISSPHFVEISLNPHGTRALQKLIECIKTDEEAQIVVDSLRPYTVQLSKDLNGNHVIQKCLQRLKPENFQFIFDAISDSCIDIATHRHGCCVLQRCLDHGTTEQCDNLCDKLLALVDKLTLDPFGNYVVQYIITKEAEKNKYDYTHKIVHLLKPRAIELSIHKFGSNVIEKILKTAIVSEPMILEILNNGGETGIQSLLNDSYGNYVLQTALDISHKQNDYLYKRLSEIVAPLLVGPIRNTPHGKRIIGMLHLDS
experimental-protocol: Mg; RNA-MaP; 20 mM Na-HEPES pH 7.4, 30 mM KOAc, 0.75 mM MgCl2, 0.1% Tween-20, 5% glycerol, 0.1 mg/mL BSA, 2 mM DTT; 25 C; 0.0125-409.6 nM protein
stated-conditions: tags: N-His6-TEV cleaved; C-SNAP kept, Cy3B-labelled; label: tethered on chip by stalled RNA polymerase

{"columns": ["binder", "unit-name", "measurement-qualifier", "Kd"],
 "data": [
  ["UCUCUUUGUAUGCAUAUCUCUU (ssRNA) [Ic_S1_P5E.1_K5.1_C5.1_H5.1_A5.1_[T6G]_[A7C]_F5.1_[T8A]_T5.1]", "nM", "=", 36],
  ["UCUCUUAGUAUCUAUCUCUU (ssRNA) [Ib_S1_P3E.1_K3.1_C3.1_H3.1_[T1A]_A3.1_[A6C]_F3.1_T3.1]", "nM", ">", 2300],
  ["Ib_S2_P3E.1_K3.1_C3.1_H3.1_[A4G]_A3.1_F3.1_[A8T]_T3.1 (ssRNA) RNA: UUUGAUUAAUAUGAUAUCGUUCUUUCUUGUGUAUUUUCUUUCUCGAUAUCAUAUUAAUCUUU", "nM", "=", 8.99],
  ["Id_ii_S4_P4E.4_K4.3_C4.2_[C-2G]_[T-1C]_H4.3_A4.1_F4.1_T4.2_[G10T]_[T11A] (ssRNA) RNA: UUUGACAACUGAUCGUUCUUUCUGCACACUAUUAUAUUCUUUCUCGAUCAGUUGUCUUU", "nM", "=", 28.5]
]}
